The reported numbers originate from patent US20220017512A1.

Molecular target: Recombinant human TRKB (Homo sapiens)
Sequence (Q16620 32-822): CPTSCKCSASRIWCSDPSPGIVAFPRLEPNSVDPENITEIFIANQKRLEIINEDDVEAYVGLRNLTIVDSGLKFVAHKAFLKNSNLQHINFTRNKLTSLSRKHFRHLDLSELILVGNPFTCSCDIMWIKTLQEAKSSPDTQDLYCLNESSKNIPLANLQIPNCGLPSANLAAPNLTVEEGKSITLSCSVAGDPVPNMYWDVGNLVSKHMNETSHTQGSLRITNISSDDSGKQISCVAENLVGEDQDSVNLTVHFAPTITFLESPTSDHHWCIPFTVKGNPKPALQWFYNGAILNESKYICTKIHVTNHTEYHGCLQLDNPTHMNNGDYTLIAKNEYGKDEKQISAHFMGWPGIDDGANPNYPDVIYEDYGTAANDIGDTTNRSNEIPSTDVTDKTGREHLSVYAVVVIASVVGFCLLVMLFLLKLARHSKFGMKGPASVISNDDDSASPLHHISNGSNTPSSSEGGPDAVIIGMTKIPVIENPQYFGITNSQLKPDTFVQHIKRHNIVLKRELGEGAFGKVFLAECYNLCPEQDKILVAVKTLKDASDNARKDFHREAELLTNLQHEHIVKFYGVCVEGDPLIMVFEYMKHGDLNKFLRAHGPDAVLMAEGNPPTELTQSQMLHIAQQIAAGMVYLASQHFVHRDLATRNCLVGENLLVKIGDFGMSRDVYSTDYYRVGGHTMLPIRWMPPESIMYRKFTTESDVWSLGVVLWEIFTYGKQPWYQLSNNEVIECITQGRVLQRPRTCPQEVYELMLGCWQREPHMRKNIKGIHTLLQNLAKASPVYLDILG
Assay: In vitro activity test on TRKB kinase (HTRF KinEASE TK)
Conditions: 4.77 μM ATP, 50 min
pIC50: −log10 of the molar value.
endpoint: pIC50

Q) Please tell me: pIC50 of O=C(O)[C@H]1CCN(c2ncc(-c3ncnc4ccc(N5C[C@@H](F)C[C@@H]5c5cc(F)ccc5F)nc34)cn2)C1 [Example 87] , system Recombinant human TRKB (Homo sapiens)?
A) > 9.00

Q) Please tell me: pIC50 of CC1(C)CC(n2cc(-c3ccnc4ccc(N5CCC[C@@H]5c5cc(F)ccc5F)nc34)cn2)CCN1 (some centres unmarked) [Example 17] , system Recombinant human TRKB (Homo sapiens)?
A) > 8.00

Q) Please tell me: pIC50 of Fc1ccc(F)c([C@H]2C[C@H](F)CN2c2ccc3ncc(Cl)c(-c4cnn([C@@H]5CCCNC5)c4)c3n2)c1 [Example 54] , system Recombinant human TRKB (Homo sapiens)?
A) > 8.00

Q) Please tell me: pIC50 of Fc1ccc(F)c([C@H]2C[C@H](F)CN2c2ccc3ncc(Cl)c(-c4cnc(N5CCOCC5)s4)c3n2)c1 [Example 61] , system Recombinant human TRKB (Homo sapiens)?
A) > 7.30

Q) Please tell me: pIC50 of COC1(C)CC(n2cc(-c3c(Cl)cnc4ccc(N5C[C@@H](F)C[C@@H]5c5cc(F)ccc5F)nc34)cn2)C1 (some centres unmarked) [Example 38] , system Recombinant human TRKB (Homo sapiens)?
A) > 8.00

Q) Please tell me: pIC50 of Fc1ccc(F)c([C@H]2CCCN2c2ccc3nccc(-c4cnn(C5CCNCC5)c4)c3n2)c1 [Example 7] , system Recombinant human TRKB (Homo sapiens)?
A) > 7.00

Q) Please tell me: pIC50 of Fc1ccc(F)c([C@H]2CCCN2c2ccc3nccc(-c4cnn(C5CCNCC5)c4F)c3n2)c1 [Example 15] , system Recombinant human TRKB (Homo sapiens)?
A) > 9.00

Q) Please tell me: pIC50 of O[C@@H]1CCN(c2ccnc3ccc(N4CCC[C@@H]4c4cc(F)ccc4F)nc23)C1 [Example 3] , system Recombinant human TRKB (Homo sapiens)?
A) > 6.30

Q) Please tell me: pIC50 of Fc1ccc(F)c([C@H]2C[C@H](F)CN2c2ccc3ncc(Cl)c(-c4ccn(C5CCNCC5)c4)c3n2)c1 [Example 48] , system Recombinant human TRKB (Homo sapiens)?
A) > 9.00

Q) Please tell me: pIC50 of Fc1cnc(Cl)c([C@H]2CCCN2c2ccc3ncc(F)c(-c4cnn(C5CCNCC5)c4)c3n2)c1 [Example 90] , system Recombinant human TRKB (Homo sapiens)?
A) > 8.00

Q) Please tell me: pIC50 of O[C@H]1CCN(c2nc(-c3c(F)cnc4ccc(N5C[C@@H](F)C[C@@H]5c5cc(F)ccc5F)nc34)no2)C1 [Example 77] , system Recombinant human TRKB (Homo sapiens)?
A) > 8.00

Q) Please tell me: pIC50 of O=C(Nc1ccnc2ccc(N3CCC[C@@H]3c3cc(F)ccc3F)nc12)c1cnc(N2CC[C@H](O)C2)nc1 [Example 8] , system Recombinant human TRKB (Homo sapiens)?
A) > 9.00

Q) Please tell me: pIC50 of CC1(C)CC(n2cc(-c3ccnc4ccc(N5C[C@@H](F)C[C@@H]5c5cc(F)ccc5F)nc34)cn2)CCN1 (some centres unmarked) [Example 18] , system Recombinant human TRKB (Homo sapiens)?
A) > 9.00

Q) Please tell me: pIC50 of Fc1ccc(F)c([C@H]2C[C@H](F)CN2c2ccc3ncc(F)c(-c4cn(C5CCNCC5)nn4)c3n2)c1 [Example 83] , system Recombinant human TRKB (Homo sapiens)?
A) > 8.00

Q) Please tell me: pIC50 of Fc1ccc(F)c([C@H]2C[C@H](F)CN2c2ccc3ncc(Cl)c(-c4nnc(C5CCNCC5)o4)c3n2)c1 [Example 42] , system Recombinant human TRKB (Homo sapiens)?
A) > 9.00

Q) Please tell me: pIC50 of NC(=O)c1cnc2ccc(N3C[C@@H](F)C[C@@H]3c3cc(F)ccc3F)nc2c1-c1cnn(C2CCNCC2)c1 [Example 37] , system Recombinant human TRKB (Homo sapiens)?
A) > 8.00

Q) Please tell me: pIC50 of O[C@@H]1CCN(c2ccc(-c3c(Cl)cnc4ccc(N5C[C@@H](F)C[C@@H]5c5cc(F)ccc5F)nc34)cn2)C1 [Example 65] , system Recombinant human TRKB (Homo sapiens)?
A) > 8.00

Q) Please tell me: pIC50 of N#Cc1cnc2ccc(N3C[C@@H](F)C[C@@H]3c3cc(F)ccc3F)nc2c1-c1cnn(C2CCNCC2)c1 [Example 36] , system Recombinant human TRKB (Homo sapiens)?
A) > 9.00

Q) Please tell me: pIC50 of O[C@H]1CCN(C(=S)Nc2ccnc3ccc(N4C[C@@H](F)C[C@@H]4c4cc(F)ccc4F)nc23)C1 [Example 79] , system Recombinant human TRKB (Homo sapiens)?
A) > 9.00

Q) Please tell me: pIC50 of O=C(Nc1ccnc2ccc(N3CCC[C@@H]3c3cc(F)ccc3F)nc12)N1CC[C@H](O)C1 [Example 27] , system Recombinant human TRKB (Homo sapiens)?
A) > 9.00

Q) Please tell me: pIC50 of Fc1ccc(F)c([C@H]2C[C@H](F)CN2c2ccc3ncc(Cl)c(-c4cnn(C5CCNCC5)c4)c3n2)c1 [Example 16] , system Recombinant human TRKB (Homo sapiens)?
A) > 9.00

Q) Please tell me: pIC50 of Fc1ccc(F)c([C@H]2CCCN2c2ccc3ncc(F)c(-c4cnn(C5CCNCC5)c4)c3n2)c1 [Example 21] , system Recombinant human TRKB (Homo sapiens)?
A) > 9.00

Q) Please tell me: pIC50 of O=S1(=O)CCC(n2cc(-c3c(Cl)cnc4ccc(N5C[C@@H](F)C[C@@H]5c5cc(F)ccc5F)nc34)cn2)CC1 [Example 47] , system Recombinant human TRKB (Homo sapiens)?
A) > 9.00

Q) Please tell me: pIC50 of O=c1n(-c2ccnc3ccc(N4C[C@@H](F)C[C@@H]4c4cc(F)ccc4F)nc23)ccn1C1CCNCC1 [Example 95] , system Recombinant human TRKB (Homo sapiens)?
A) > 8.00

Q) Please tell me: pIC50 of OC1CCN(c2nc(-c3c(F)cnc4ccc(N5C[C@@H](F)C[C@@H]5c5cc(F)ccc5F)nc34)no2)CC1 [Example 84] , system Recombinant human TRKB (Homo sapiens)?
A) > 8.00

Q) Please tell me: pIC50 of COc1ccc(F)cc1[C@H]1CCCN1c1ccc2ncc(Cl)c(-c3cnn(C4CCNCC4)c3)c2n1 [Example 33] , system Recombinant human TRKB (Homo sapiens)?
A) > 8.00

Q) Please tell me: pIC50 of Fc1ccc(F)c([C@H]2C[C@H](F)CN2c2ccc3ncc(Cl)c(-c4cnc(N5CCNCC5)s4)c3n2)c1 [Example 60] , system Recombinant human TRKB (Homo sapiens)?
A) > 8.00

Q) Please tell me: pIC50 of CN1CCC(n2cc(-c3ccnc4ccc(N5C[C@@H](F)C[C@@H]5c5cc(F)ccc5F)nc34)cn2)CC1 [Example 13] , system Recombinant human TRKB (Homo sapiens)?
A) > 9.00

Q) Please tell me: pIC50 of O=C(O)[C@@H]1CCN(c2ncc(-c3ncnc4ccc(N5C[C@@H](F)C[C@@H]5c5cc(F)ccc5F)nc34)cn2)C1 [Example 88] , system Recombinant human TRKB (Homo sapiens)?
A) > 9.00

---

Biological target: recombinant human TRKA (G595R) (Homo sapiens, UniProt P04629, G595R)
Sequence (P04629 33-796 G595R): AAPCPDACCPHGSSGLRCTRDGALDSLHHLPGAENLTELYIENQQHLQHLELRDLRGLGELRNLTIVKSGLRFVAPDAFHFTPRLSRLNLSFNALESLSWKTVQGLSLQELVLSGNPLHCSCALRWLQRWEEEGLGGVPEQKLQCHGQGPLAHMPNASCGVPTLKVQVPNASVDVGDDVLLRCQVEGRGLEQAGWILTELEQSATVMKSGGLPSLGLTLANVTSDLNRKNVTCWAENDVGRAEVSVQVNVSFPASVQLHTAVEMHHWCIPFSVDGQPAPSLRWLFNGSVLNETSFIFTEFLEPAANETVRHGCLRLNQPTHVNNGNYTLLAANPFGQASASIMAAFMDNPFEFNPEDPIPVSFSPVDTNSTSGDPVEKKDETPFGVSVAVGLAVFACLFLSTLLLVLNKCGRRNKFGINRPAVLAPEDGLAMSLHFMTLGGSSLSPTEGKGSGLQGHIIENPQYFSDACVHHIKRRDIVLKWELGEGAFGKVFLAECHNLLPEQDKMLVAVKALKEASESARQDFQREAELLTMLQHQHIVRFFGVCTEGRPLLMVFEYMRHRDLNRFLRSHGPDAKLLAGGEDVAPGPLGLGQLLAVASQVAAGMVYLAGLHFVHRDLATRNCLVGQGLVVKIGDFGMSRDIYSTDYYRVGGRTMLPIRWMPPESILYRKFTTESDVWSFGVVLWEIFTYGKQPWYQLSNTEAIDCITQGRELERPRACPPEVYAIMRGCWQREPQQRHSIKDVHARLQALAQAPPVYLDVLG
Test: In vitro activity test on mutant TRKA (G595R) (HTRF KinEASE TK)
Conditions: 4.5 μM ATP, 30 min
endpoint: IC50

Q) Given Fc1ccc(F)c([C@H]2C[C@H](F)CN2c2ccc3ncc(Cl)c(-c4cnn([C@@H]5CCNC5)c4)c3n2)c1 , state its recorded IC50.
A) < 10 nM

Q) Given Fc1ccc(F)c([C@H]2C[C@H](F)CN2c2ccc3nccc(-c4cnn(C5CCOCC5)c4)c3n2)c1 , state its recorded IC50.
A) < 1 nM

Q) Given Fc1ccc(F)c([C@H]2C[C@H](F)CN2c2ccc3ncc(F)c(-c4cnn(C5CCNCC5)c4)c3n2)c1 , state its recorded IC50.
A) < 1 nM

Q) Given O[C@H]1CCN(c2nc(-c3c(F)cnc4ccc(N5C[C@@H](F)C[C@@H]5c5cc(F)ccc5F)nc34)no2)C1 , state its recorded IC50.
A) < 1 nM

Q) Given Fc1ccc(F)c([C@H]2C[C@H](F)CN2c2ccc3ncc(Cl)c(-c4ccn(C5CCNCC5)c4)c3n2)c1 , state its recorded IC50.
A) < 10 nM

Q) Given Fc1cnc(Cl)c([C@H]2CCCN2c2ccc3ncc(F)c(-c4cnn(C5CCNCC5)c4)c3n2)c1 , state its recorded IC50.
A) < 1 nM

Q) Given Fc1ccc(F)c([C@H]2C[C@H](F)CN2c2ccc3ncc(F)c(-c4cn(C5CCNCC5)nn4)c3n2)c1 , state its recorded IC50.
A) < 10 nM

Q) Given O=S1(=O)CCC(n2cc(-c3c(Cl)cnc4ccc(N5C[C@@H](F)C[C@@H]5c5cc(F)ccc5F)nc34)cn2)CC1 , state its recorded IC50.
A) < 10 nM

Q) Given CC1(O)CCN(c2ncc(-c3ncnc4ccc(N5C[C@@H](F)C[C@@H]5c5cc(F)ccc5F)nc34)cn2)C1 (some centres unmarked) , state its recorded IC50.
A) < 10 nM

Q) Given CC(C)(O)Cn1cc(-c2c(Cl)cnc3ccc(N4C[C@@H](F)C[C@@H]4c4cc(F)ccc4F)nc23)cn1 , state its recorded IC50.
A) < 10 nM

Q) Given OCCN1CCC(n2cc(-c3c(Cl)cnc4ccc(N5C[C@@H](F)C[C@@H]5c5cc(F)ccc5F)nc34)cn2)CC1 , state its recorded IC50.
A) < 1 nM

Q) Given OC1CCC(Nc2ccnc3ccc(N4C[C@@H](F)C[C@@H]4c4cc(F)ccc4F)nc23)C1 (some centres unmarked) , state its recorded IC50.
A) < 10 nM

Q) Given COc1ccc(F)cc1[C@H]1CCCN1c1ccc2ncc(Cl)c(-c3cnn(C4CCNCC4)c3)c2n1 , state its recorded IC50.
A) < 10 nM

Q) Given Fc1ccc(F)c([C@H]2C[C@H](F)CN2c2ncc3ncnc(-c4cnn(C5CCNCC5)c4)c3n2)c1 , state its recorded IC50.
A) < 10 nM
